Catalogue of EC50 values
Target: human GPR40 (Homo sapiens, UniProt O14842)
Sequence (O14842 whole entry): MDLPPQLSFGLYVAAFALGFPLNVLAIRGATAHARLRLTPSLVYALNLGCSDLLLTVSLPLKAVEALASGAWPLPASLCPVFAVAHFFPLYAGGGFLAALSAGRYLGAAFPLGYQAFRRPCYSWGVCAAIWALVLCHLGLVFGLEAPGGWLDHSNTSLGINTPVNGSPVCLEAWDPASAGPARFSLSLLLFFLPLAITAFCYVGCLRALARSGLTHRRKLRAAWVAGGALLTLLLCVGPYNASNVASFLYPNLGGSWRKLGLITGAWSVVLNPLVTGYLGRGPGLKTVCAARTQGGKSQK
Test: GPR40 calcium flux assay (hGPR40 Ca2+ Assay)
Conditions: transfected HEK293 cells stably expressing human GPR40; Fluo 8 calcium dye; multiple values = repeated testing; read-out: hGPR40 Ca^2+ Assay EC50
Procedure: Compounds were tested in a calcium flux assay using transfected HEK293 cells stably expressing either human GPR40 or rat GPR40. […] The cell plate and a plate of diluted compounds of Formula (III) were loaded into a fluorescent plate reader that added compounds onto the cells while measuring the fluorescence intensity of each well. The plate reader recorded fluorescence intensity at 1 second intervals for 8 min and provided the data for analysis in an Excel format. […]
Numeric answer only, unit nM assumed.

| molecule | readout units | value observed |
| --- | --- | --- |
| COc1ccc(F)c(-n2nnc(COc3cc(C(CC(=O)O)C4CC4)ccn3)c2C2=CCCC2(C)C)c1 (racemic) | nM | 1 |

Enter reported EC50 observed with human GPR40 (Homo sapiens, UniProt O14842) for COc1ccc(F)c(-n2ncc(COc3cc(C(CC(=O)O)C4CC4)ccn3)c2C2=CCCC2(C)C)c1 (centres unmarked)
1

Moving on to the next molecule: "COc1ccc(F)c(-n2nnc(COc3cc([C@H](CC(=O)O)C4CC4)ccn3)c2C2=CCCC2(C)C)c1"
60

Moving on to the next molecule: "COc1ccc(F)c(-n2nnc(CCc3cccc([C@@H](CC(=O)O)C4CC4)c3)c2C2CC2)c1"
103

====

Catalogue of EC50 values
biological target: human GPR40 (Homo sapiens); experiment: GPR40 calcium flux assay (hGPR40 Ca2+ Assay); settings: transfected HEK293 cells stably expressing human GPR40; Fluo 8 calcium dye; multiple values = repeated testing; read-out: hGPR40 Ca^2+ Assay EC50
Numeric answer only, unit nM assumed.

| molecule | EC50 / nM |
| --- | --- |
| COc1ccc(F)c(-n2nnc(COc3cc([C@@H](CC(=O)O)C4CC4)ccn3)c2C2=CCCC2(C)C)c1 | 1 |
| COc1ccc(F)c(-n2nnc(/C=C/c3cccc([C@@H](CC(=O)O)C4CC4)c3)c2C2CC2)c1 | 38 |
| COc1ccc(F)c(-n2nnc(COc3cc(C(CC(=O)O)C4CC4)c(Cl)cn3)c2C2=CCCC2(C)C)c1 (stereo not shown) | 69 |
| COc1ccc(F)c(-n2ncc(/C=C/c3cccc(C(CC(=O)O)C4CC4)c3)c2C2CC2)c1 (stereo not shown) | 66 |
| COc1ccc(F)c(-n2ncc(CCc3cccc(C(CC(=O)O)C4CC4)c3)c2C2CC2)c1 (stereo not shown) | 66 |
| COc1ccc(F)c(-n2ncc(COc3cc(C(CC(=O)O)C4CC4)c(Cl)cn3)c2C2=CCCC2(C)C)c1 (stereo not shown) | 24 |
| COc1ccc(F)c(-n2nnc(COc3cccc([C@@H](CC(=O)O)C4CC4)c3)c2N2CCCCC2)c1 | 14 |
| COc1cc(-n2ncc(COc3cccc([C@@H](CC(=O)O)C4CC4)c3)c2C2CC2)c(F)cn1 | 16 |
| COc1ccc(F)c(-n2nnc(COc3cccc([C@@H](CC(=O)O)C4CC4)c3)c2N2CCOCC2)c1 | 273 |

Pending molecule:
Using the record for "COc1ccc(F)c(-n2ncc(COc3cccc([C@@H](CC(=O)O)C4CC4)c3)c2N2CCOCC2)c1" , report its EC50.
27
